Sourced from patent US6544990B2

Consider the following molecules; for each one, report its melting point.

*Q* Recorded melting point for Cn1cc(C(=O)NCc2ccc(Cl)cc2)c(=O)c2cc(CN3CCOCC3)cc(C#CCC(CO)CO)c21 , please?
*A* 190 to 193 °C

*Q* Recorded melting point for Cn1cc(C(=O)NCc2ccc(Cl)cc2)c(=O)c2cc(CN3CCOCC3)cc(C#CCF)c21 , please?
*A* 189 to 191 °C

*Q* Recorded melting point for Cn1cc(C(=O)NCc2ccc(Cl)cc2)c(=O)c2cc(CC3CCOCC3)cc(C#CCO)c21 , please?
*A* 166 to 168 °C

*Q* Recorded melting point for Cn1cc(C(=O)NCc2ccc(Cl)cc2)c(=O)c2cc(CN3CCOCC3)cc(C#CCCO)c21 , please?
*A* 168 to 170 °C

*Q* Recorded melting point for CN(CC#Cc1cc(CN2CCOCC2)cc2c(=O)c(C(=O)NCc3ccc(Cl)cc3)cn(C)c12)CC(O)CO (centres unmarked) , please?
*A* 140 to 142 °C
